Values were extracted from patent US7713937B2.

# subjectOfTest: mouse kappa opioid receptor (mKOR) (Mus musculus)
# Construct: Stimulation of Endogenous Mouse Kappa-Opioid Receptor in R1.G1 Cells; host or cells: R1.G1 mouse thymoma cells
# Sequence (P33534 whole entry): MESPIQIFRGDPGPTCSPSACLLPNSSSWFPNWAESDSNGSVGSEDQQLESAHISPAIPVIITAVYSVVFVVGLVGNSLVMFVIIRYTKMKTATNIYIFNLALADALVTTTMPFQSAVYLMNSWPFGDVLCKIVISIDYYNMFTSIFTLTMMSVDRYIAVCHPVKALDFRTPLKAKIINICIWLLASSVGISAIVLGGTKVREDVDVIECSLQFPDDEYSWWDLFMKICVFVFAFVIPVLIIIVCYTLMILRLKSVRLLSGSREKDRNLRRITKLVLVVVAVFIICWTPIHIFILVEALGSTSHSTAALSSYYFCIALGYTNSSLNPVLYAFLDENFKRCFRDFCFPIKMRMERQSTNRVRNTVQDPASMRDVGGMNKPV
# assaySummary: cell-based
# conditionLabel: read-out: mKOR Efficacy(%)
Square brackets hold non-standard residues; d marks the D form. Peptide text beside a SMILES is read from it. dNle = CCCC[C@@H](N)C(=O)O
readoutName: Emax
Provide a numeric answer, followed by its unit.

compound: CC(C)C[C@@H](NC(=O)[C@@H](Cc1ccccc1)NC(=O)[C@H](N)Cc1ccccc1)C(=O)N[C@H](CCCCN)C(=O)N1CCS(=O)(=O)CC1 [Compound (71)]
Emax: 89%

Enquiry: Consider the compound CCCC[C@@H](NC(=O)[C@@H](Cc1ccccc1)NC(=O)[C@H](N)Cc1ccccc1)C(=O)N[C@H](CCCNC(=N)N)C(=O)N1CCC[C@@H]1C(=O)O [Compound (40), D-Phe-D-Phe-D-Nle-D-Arg-D-Pro-OH] (H-[dF][dF][dNle][dR][dP]-OH) and give its measured Emax.
Return: 88%

Enquiry: Another compound to check: CC(C)C[C@@H](NC(=O)[C@@H](Cc1ccccc1)NC(=O)[C@H](N)Cc1ccccc1)C(=O)N[C@H](CCCCN)C(=O)NCC1CCOCC1 [Compound (73)]
Return: 89%
